Tested on: U937 human histiocytic leukemia cell line
procedure_summary: Screening for inhibition of TSQ induced necroptosis, 96 well plate format
Format: cell-based
study_conditions: U-937, U937, TSQ, 48 hours, average IC50, unit not given in Table 2 (titrations in nM), read-out: Cell based assay Average
Please go through the items and note down their IC50.
Field format: number, assumed nM, no unit text.

Task item: What measured IC50 goes with CNS(=O)(=O)c1cccc(Nc2nccc(N(C)c3ccc(NC(=O)Nc4ccc(OC(F)(F)F)cc4)cc3)n2)c1 [Compound 9] ?
Reply: 42

Task item: What measured IC50 goes with CN(c1ccc(NC(=O)Nc2ccc(OC(F)(F)F)cc2)cc1)c1ccnc(Nc2cccc(CS(C)(=O)=O)c2)n1 [Compound 27] ?
Reply: 114

Task item: What measured IC50 goes with CN(c1ccc(NC(=O)Nc2ccc(OC(F)(F)F)cc2)cc1)c1ccnc(Nc2ccc(F)c(S(N)(=O)=O)c2)n1 [Compound 18] ?
Reply: 59.4

Task item: What measured IC50 goes with Cc1ccc(Nc2nccc(N(C)c3ccc(NC(=O)Nc4ccc(OC(F)(F)F)cc4)cc3)n2)cc1C(=O)N(C)C [Compound 19] ?
Reply: 85.5

Task item: What measured IC50 goes with CN(c1ccc(NC(=O)Nc2cc(C(F)(F)F)ccc2F)cc1)c1ccnc(Nc2cccc(S(N)(=O)=O)c2)n1 [Compound 3] ?
Reply: 15.3

Task item: What measured IC50 goes with CN(c1ccc(NC(=O)Nc2ccc(OC(F)(F)F)cc2)cc1)c1ccnc(Nc2cccc(S(=O)(=O)N(C)C)c2)n1 [Compound 10] ?
Reply: 45.6

Task item: What measured IC50 goes with Cc1cc(OC(F)(F)F)ccc1NC(=O)Nc1ccc(N(C)c2ccnc(Nc3cccc(S(N)(=O)=O)c3)n2)cc1 [Compound 20] ?
Reply: 109

---

System: U937 cells
procedure_summary: Counter screen: cell viability without TSQ cocktail (off target effect)
Assay type: cell-based
study_conditions: U937 without TSQ cocktail, compound at 10 uM
parameter_measured: Off target effect (% cell death) at 10 uM (%)
Field format: number, assumed %, no unit text.

Task item: What measured Off target effect (% cell death) at 10 uM goes with CN(c1ccc(NC(=O)Nc2ccccc2)cc1)c1ccnc(Nc2cccc(S(N)(=O)=O)c2)n1 [Compound 2] ?
Reply: 87

Task item: What measured Off target effect (% cell death) at 10 uM goes with CN(c1ccc(NC(=O)Nc2ccc(OC(F)(F)F)cc2)cc1)c1ccnc(Nc2cccc(CS(C)(=O)=O)c2)n1 [Compound 27] ?
Reply: 84

Task item: What measured Off target effect (% cell death) at 10 uM goes with CCN(c1ccc(NC(=O)Nc2ccc(OC(F)(F)F)cc2)cc1)c1ccnc(Nc2cccc(S(N)(=O)=O)c2)n1 [Compound 26] ?
Reply: 69

Task item: What measured Off target effect (% cell death) at 10 uM goes with CN(c1ccc(NC(=O)Nc2cc(C(F)(F)F)ccc2F)cc1)c1ccnc(Nc2cccc(S(N)(=O)=O)c2)n1 [Compound 3] ?
Reply: 84

---

System: U937 cells
procedure_summary: Counter screen: cell viability without TSQ cocktail (off target effect)
Type: cell-based
study_conditions: U937 without TSQ cocktail, compound at 10 uM
parameter_measured: Off target effect (% cell death) at 10 uM
Phrase the answer as number then unit, nothing more needed.

Task item: What measured Off target effect (% cell death) at 10 uM goes with CN(c1ccc(NC(=O)Nc2ccc(OC(F)(F)F)cc2)cc1)c1ccnc(Nc2ccc(F)c(S(N)(=O)=O)c2)n1 ?
Reply: 93%

Task item: What measured Off target effect (% cell death) at 10 uM goes with NS(=O)(=O)c1cccc(Nc2nccc(N(c3ccc(NC(=O)Nc4ccc(OC(F)(F)F)cc4)cc3)C3CC3)n2)c1 ?
Reply: 80%

Task item: What measured Off target effect (% cell death) at 10 uM goes with CN(c1ccc(NC(=O)C(C)(C)c2ccc(OC(F)(F)F)cc2)cc1)c1ccnc(Nc2cccc(S(N)(=O)=O)c2)n1 ?
Reply: 80%

Task item: What measured Off target effect (% cell death) at 10 uM goes with CNS(=O)(=O)c1cccc(Nc2nccc(N(C)c3ccc(NC(=O)Nc4ccc(OC(F)(F)F)cc4)cc3)n2)c1 ?
Reply: 88%

Task item: What measured Off target effect (% cell death) at 10 uM goes with CN(C(=O)Nc1ccc(OC(F)(F)F)cc1)c1ccc(N(C)c2ccnc(Nc3cccc(S(N)(=O)=O)c3)n2)cc1 ?
Reply: 56%

Task item: What measured Off target effect (% cell death) at 10 uM goes with CN(c1ccc(NC(=O)Nc2ccc(OC(F)(F)F)cc2)cc1)c1ccnc(Nc2cccc(CS(N)(=O)=O)c2)n1 ?
Reply: 84%

Task item: What measured Off target effect (% cell death) at 10 uM goes with CN(c1cccc(NC(=O)Nc2ccc(OC(F)(F)F)cc2)c1)c1ccnc(Nc2cccc(S(N)(=O)=O)c2)n1 ?
Reply: 70%

Task item: What measured Off target effect (% cell death) at 10 uM goes with Cc1ccc(F)c(NC(=O)Nc2ccc(N(C)c3ccnc(Nc4cccc(S(N)(=O)=O)c4)n3)cc2)c1 ?
Reply: 89%

Task item: What measured Off target effect (% cell death) at 10 uM goes with Cc1ccc(Nc2nccc(N(C)c3ccc(NC(=O)Nc4ccc(OC(F)(F)F)cc4)cc3)n2)cc1C(=O)N(C)C ?
Reply: 70%

Task item: What measured Off target effect (% cell death) at 10 uM goes with NS(=O)(=O)c1cccc(Nc2nccc(Nc3ccc(NC(=O)Nc4ccc(OC(F)(F)F)cc4)cc3)n2)c1 ?
Reply: 20%

Task item: What measured Off target effect (% cell death) at 10 uM goes with CN(c1ccc(NC(=O)Cc2ccc(OC(F)(F)F)cc2)cc1)c1ccnc(Nc2cccc(S(N)(=O)=O)c2)n1 ?
Reply: 30%

Task item: What measured Off target effect (% cell death) at 10 uM goes with CN(c1ccc(NC(=O)Nc2ccc(OC(F)(F)F)cc2)cc1)c1ccnc(Nc2cccc(S(C)(=O)=O)c2)n1 ?
Reply: 86%

Task item: What measured Off target effect (% cell death) at 10 uM goes with COCCNS(=O)(=O)c1cccc(Nc2nccc(N(C)c3ccc(NC(=O)Nc4ccc(OC(F)(F)F)cc4)cc3)n2)c1 ?
Reply: 64%

Task item: What measured Off target effect (% cell death) at 10 uM goes with Cc1ccc(Nc2nccc(N(C)c3ccc(NC(=O)Nc4ccc(OC(F)(F)F)cc4)cc3)n2)cc1S(N)(=O)=O ?
Reply: 79%

Task item: What measured Off target effect (% cell death) at 10 uM goes with CN(c1ccc(NC(=O)Nc2ccc(OC(F)(F)F)cc2)cc1)c1ccnc(Nc2cccc(S(=O)(=O)N(C)C)c2)n1 ?
Reply: 69%

Task item: What measured Off target effect (% cell death) at 10 uM goes with CN(c1ccc(CC(=O)Nc2ccc(OC(F)(F)F)cc2)cc1)c1ccnc(Nc2cccc(S(N)(=O)=O)c2)n1 ?
Reply: 39%

Task item: What measured Off target effect (% cell death) at 10 uM goes with CN(c1ccc(NC(=O)Nc2ccc(OC(F)(F)F)cc2)cc1)c1ccnc(Nc2cccc(S(N)(=O)=O)c2)n1 ?
Reply: 79%

Task item: What measured Off target effect (% cell death) at 10 uM goes with CN(c1ccc(NC(=O)Nc2ccc(OC(F)(F)F)cc2)cc1)c1ccnc(Nc2cccc(S(N)(=O)=O)c2)c1 ?
Reply: 43%
